The origin of these recorded values is patent US11427548B2.

Target: Androgen Receptor (Homo sapiens, UniProt P10275)
Construct: endogenous in cells; host or cells: VCaP cells
Sequence (P10275 1-920): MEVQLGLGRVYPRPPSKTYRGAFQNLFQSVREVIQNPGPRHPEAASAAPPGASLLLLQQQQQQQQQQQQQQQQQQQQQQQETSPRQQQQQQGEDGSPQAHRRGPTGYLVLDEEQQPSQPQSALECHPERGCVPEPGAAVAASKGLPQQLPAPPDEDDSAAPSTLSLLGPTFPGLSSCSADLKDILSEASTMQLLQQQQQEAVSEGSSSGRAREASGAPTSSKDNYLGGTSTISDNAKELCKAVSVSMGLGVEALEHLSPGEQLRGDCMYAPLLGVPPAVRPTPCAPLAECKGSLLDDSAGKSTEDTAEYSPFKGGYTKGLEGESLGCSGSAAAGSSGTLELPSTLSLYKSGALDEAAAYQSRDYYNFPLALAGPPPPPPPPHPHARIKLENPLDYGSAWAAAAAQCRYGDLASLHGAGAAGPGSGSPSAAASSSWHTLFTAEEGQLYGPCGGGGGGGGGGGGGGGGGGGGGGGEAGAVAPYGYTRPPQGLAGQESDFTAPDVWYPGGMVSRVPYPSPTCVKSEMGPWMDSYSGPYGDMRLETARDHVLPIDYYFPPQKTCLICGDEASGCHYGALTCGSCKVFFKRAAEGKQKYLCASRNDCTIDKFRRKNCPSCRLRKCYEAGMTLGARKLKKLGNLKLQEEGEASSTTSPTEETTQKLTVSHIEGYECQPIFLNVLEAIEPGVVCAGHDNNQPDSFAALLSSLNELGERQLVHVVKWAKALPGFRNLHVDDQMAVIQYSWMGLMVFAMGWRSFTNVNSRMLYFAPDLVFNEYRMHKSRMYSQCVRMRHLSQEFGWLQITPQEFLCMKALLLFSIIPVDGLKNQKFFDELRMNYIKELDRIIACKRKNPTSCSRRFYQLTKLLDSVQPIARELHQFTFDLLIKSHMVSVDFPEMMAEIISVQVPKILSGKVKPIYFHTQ
Experiment: Androgen Receptor ELISA assay (PathScan AR ELISA) in VCaP cells: AR degradation, Dmax and DC50
Assay type: cell-based
Conditions: VCaP, read-out: VCaP Dmax (%)
Answer each item with its documented Dmax.

Quick note, Dmax for COc1cc(-c2ccc(N3C(=S)N(c4ccc(C#N)c(C(F)(F)F)c4)C(=O)C3(C)C)cc2)ccc1OCCCCOCC(=O)N[C@H](C(=O)N1C[C@H](O)C[C@H]1C(=O)NCc1ccc(-c2scnc2C)cc1)C(C)(C)C landed at > 71%

Memo: CC(C)(C)[C@H](NC(=O)COCCCCOCCCCOc1ccc(N2C(=S)N(c3ccc(C#N)c(Cl)c3)C(=O)C2(C)C)cc1)C(=O)N1C[C@H](O)C[C@H]1C(=O)NCc1ccc(-c2cnco2)cc1 , reported Dmax: 51 to 70%

Measured Dmax, Cc1ncsc1-c1ccc(C(C)NC(=O)C2CC(O)CN2C(=O)C(NC(=O)COCCCOCCCCCOc2ccc(N3C(=S)N(c4ccc(C#N)c(C(F)(F)F)c4)C(=O)C3(C)C)cc2)C2COC2)cc1 (stereo not drawn) : < 25%

* * *

biological target: Androgen Receptor (Homo sapiens); construct: endogenous in cells; host or cells: VCaP cells; assay: Androgen Receptor ELISA assay (PathScan AR ELISA) in VCaP cells: AR degradation, Dmax and DC50; assay type: cell-based; conditions: VCaP cells; Table 36; read-out: VCaP DC50
Field: DC50. Provide a value for each of the compounds that follow.

// assay Androgen Receptor (Homo sapiens), entry Cc1ncsc1-c1ccc([C@H](C)NC(=O)[C@@H]2C[C@@H](O)CN2C(=O)[C@@H](NC(=O)CN2CCN(CCOc3ccc(C(=O)N[C@H]4C(C)(C)[C@H](Oc5ccc(C#N)c(Cl)c5)C4(C)C)cc3)CC2)C(C)(C)C)cc1 , DC50 value = < 50 nM

Item Cc1ncsc1-c1ccc([C@H](C)NC(=O)[C@@H]2C[C@@H](O)CN2C(=O)[C@@H](NC(=O)[C@H](C)OCCN2CCN(c3ccc(C(=O)N[C@H]4C(C)(C)[C@H](Oc5ccc(C#N)c(Cl)c5)C4(C)C)cc3)CC2)C(C)(C)C)cc1 ; assay system Androgen Receptor (Homo sapiens); DC50 reported as < 50 nM

For Cc1ncsc1-c1ccc([C@H](C)NC(=O)[C@@H]2C[C@@H](O)CN2C(=O)[C@@H](c2cc(CCCCN3CCN(c4ccc(C(=O)N[C@H]5C(C)(C)[C@H](Oc6ccc(C#N)c(Cl)c6)C5(C)C)cn4)CC3)no2)C(C)C)cc1 on Androgen Receptor (Homo sapiens), measured DC50 was < 50 nM

// assay Androgen Receptor (Homo sapiens), entry Cc1ncsc1-c1ccc([C@H](C)NC(=O)[C@@H]2C[C@@H](O)CN2C(=O)[C@H](NC(=O)CN2CCN(CCCc3ccc(C(=O)N[C@H]4C(C)(C)[C@H](Oc5ccc(C#N)c(Cl)c5)C4(C)C)cc3)CC2)C2COC2)cc1 , DC50 value = > 501 nM

// compound Cc1ncsc1-c1ccc([C@H](CO)NC(=O)C2C[C@@H](O)CN2C(=O)[C@@H](NC(=O)COCCN2CCCN(c3ccc(C(=O)NC4C(C)(C)C(Oc5ccc(C#N)c(Cl)c5)C4(C)C)cn3)CC2)C(C)(C)C)cc1 (stereo partly shown) , assay Androgen Receptor (Homo sapiens), DC50 value: < 50 nM

Per the reported Androgen Receptor (Homo sapiens) data, Cc1ncsc1-c1ccc([C@H](C)NC(=O)[C@@H]2C[C@@H](O)CN2C(=O)[C@@H](NC(=O)CN2CCN(CCCN3CCN(c4ccc(C(=O)N[C@H]5C(C)(C)[C@H](Oc6ccc(C#N)c(C#N)c6)C5(C)C)cn4)CC3)CC2)C(C)(C)C)cc1 has DC50 of < 50 nM

Known value: Androgen Receptor (Homo sapiens) DC50 of the compound CC(C)[C@@H](C(=O)N1C[C@H](O)C[C@H]1C(=O)NCc1ccc(Cl)cc1OCCN1CCN(c2ccc(C(=O)N[C@H]3C(C)(C)[C@H](Oc4ccc(C#N)c(Cl)c4)C3(C)C)cn2)CC1)N1Cc2ccccc2C1=O equals > 501 nM

I looked up CO[C@@H]1C[C@@H](C(=O)N(C)Cc2ccc(-c3scnc3C)cc2)N(C(=O)[C@@H](N(C)C(=O)COCCCCCN(C)c2ccc(C(=O)N[C@H]3C(C)(C)[C@H](Oc4ccc(C#N)c(C(F)(F)F)c4)C3(C)C)nc2)C(C)(C)C)C1 and its DC50 for Androgen Receptor (Homo sapiens) was > 501 nM

With Androgen Receptor (Homo sapiens) as the test system, Cc1ncsc1-c1ccc([C@H](CO)NC(=O)[C@@H]2C[C@@H](O)CN2C(=O)[C@@H](NC(=O)CN2CCN(CCCCc3ccc(C(=O)N[C@H]4C(C)(C)[C@H](Oc5ccc(C#N)c(Cl)c5)C4(C)C)cc3)CC2)C(C)(C)C)cc1 showed DC50 of < 50 nM

Recorded DC50 for CC(C)[C@H](C(=O)N1C[C@H](O)C[C@H]1C(=O)N[C@@H](C)c1ccc(C#N)cc1)c1cc(OCCN2CCN(c3ccc(C(=O)N[C@H]4C(C)(C)[C@H](Oc5ccc(C#N)c(Cl)c5)C4(C)C)cn3)CC2)no1 on Androgen Receptor (Homo sapiens) was < 50 nM

Summary: Cc1ncsc1-c1ccc([C@H](C)NC(=O)[C@@H]2C[C@@H](O)CN2C(=O)[C@@H](NC(=O)COCCCCCNc2ccc(C(=O)N[C@H]3C(C)(C)[C@H](Oc4ccc(C#N)c(Cl)c4)C3(C)C)nn2)C(C)(C)C)cc1 , Androgen Receptor (Homo sapiens), DC50 = > 501 nM

Result for Cc1ncsc1-c1ccc(CNC(=O)[C@@H]2C[C@@H](O)CN2C(=O)[C@@H](NC(=O)CN2CCN(CCOc3ccc(C(=O)N[C@H]4C(C)(C)[C@H](Oc5ccc(C#N)c(C(F)(F)F)c5)C4(C)C)cc3)CC2)C(C)(C)C)cc1 , tested on Androgen Receptor (Homo sapiens), DC50: < 50 nM

# value of DC50, Androgen Receptor (Homo sapiens), item Cc1ncsc1-c1ccc([C@H](C)NC(=O)[C@@H]2C[C@@H](O)CN2C(=O)[C@@H](NC(=O)CN2CCC(CN3CCN(c4ccc(C(=O)N[C@H]5C(C)(C)[C@H](Oc6ccc(C#N)c(Cl)c6)C5(C)C)cn4)CC3)CC2)C(C)(C)C)cc1 = < 50 nM

Bench note, Androgen Receptor (Homo sapiens): entry Cc1ncsc1-c1ccc([C@H](C)NC(=O)[C@@H]2C[C@@H](O)CN2C(=O)[C@@H](NC(=O)Cc2ccnc(N3CCN(c4ccc(C(=O)N[C@H]5C(C)(C)[C@H](Oc6ccc(C#N)c(Cl)c6)C5(C)C)cn4)CC3)c2)C(C)(C)C)cc1 , its DC50 = < 50 nM

Reported DC50 (Androgen Receptor (Homo sapiens)) for entry C[C@H](NC(=O)[C@@H]1C[C@@H](O)CN1C(=O)[C@@H](NC(=O)COCCN1CCN(c2ccc(C(=O)N[C@H]3C(C)(C)[C@H](Oc4ccc(C#N)c(Cl)c4)C3(C)C)cn2)CC1)C(C)(C)C)c1ccc(-c2scnc2CO)cc1 is < 50 nM

The observed DC50 for Cc1ncsc1-c1ccc([C@H](C)NC(=O)[C@@H]2C[C@@H](O)CN2C(=O)[C@@H](NC(=O)COCCN2CCN(c3ccc(C(=O)N[C@H]4C(C)(C)[C@H](Oc5ccc(C#N)c(Cl)c5)C4(C)C)cc3)CC2)C(C)(C)O)cc1 when tested with Androgen Receptor (Homo sapiens) stands at > 501 nM
